Cited source for all entries: patent US10399933B2

// reported IC50 per item
assayedSystem: human IDO1 (Homo sapiens, UniProt P14902)
Sequence (P14902 whole entry): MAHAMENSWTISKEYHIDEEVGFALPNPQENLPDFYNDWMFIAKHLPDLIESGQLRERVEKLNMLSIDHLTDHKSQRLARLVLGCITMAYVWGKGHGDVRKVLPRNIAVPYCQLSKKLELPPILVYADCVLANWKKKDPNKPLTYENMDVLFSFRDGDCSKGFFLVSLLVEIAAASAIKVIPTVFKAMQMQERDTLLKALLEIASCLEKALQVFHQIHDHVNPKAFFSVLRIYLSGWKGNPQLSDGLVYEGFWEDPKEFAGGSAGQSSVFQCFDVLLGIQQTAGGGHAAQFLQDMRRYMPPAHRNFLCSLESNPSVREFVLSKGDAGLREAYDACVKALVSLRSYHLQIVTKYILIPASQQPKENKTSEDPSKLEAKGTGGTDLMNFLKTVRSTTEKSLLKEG
procedureText: Human IDO-1 inhibitory activity in HEK cells (human IDO1/HEK293 cellular assay)
Type: cell-based
Design: expressed in transfected cells
runConditions: HEK human IDO-1 cellular assay; 500 nM reference standard = 100% inhibition, DMSO = 0%

{"columns": ["molecule", "IC50"],
 "data": [
  ["CCC(CC(=O)O)c1ccc(N2CCC[C@H]2C(C)(C)F)c(NC(=O)Nc2ccc(OC)cc2F)c1 (single isomer, unassigned)", "> 50 nM"],
  ["CCC(CC(=O)O)c1cc(F)c(N(CC(C)C)C2CCCCC2)c(NC(=O)Cc2ccc(C)cc2)c1 (single isomer, unassigned) [Example 1101 E1]", "< 5 nM"],
  ["CCN(c1ccc(C(COC(C)C)CC(=O)O)cc1Nc1ccc(F)cc1)C1CCS(=O)(=O)CC1 (centres unmarked) [Example 336]", "< 50 nM"],
  ["Cc1ccc(CC(=O)Nc2cc(C(C)CC(=O)O)ccc2N(CC(C)C)C2CCOCC2)cc1 (single isomer, unassigned)", "< 50 nM"],
  ["CCN(c1ccc(C(CC(=O)O)c2ccccc2)cc1NC(=O)Nc1ccc(C)cc1)C1CCOCC1 (single isomer, unassigned)", "> 50 nM"],
  ["CCN(c1ccc(C(COC(C)C)CC(=O)O)cc1Nc1ccc(F)cc1)C1CCS(=O)(=O)CC1 (centres unmarked) [Example 316]", "< 50 nM"],
  ["CCOc1ccc(NC(=O)Nc2cc(C(COC)CC(=O)O)cc(F)c2N(CC(C)C)CC(C)C)cc1 (single isomer, unassigned)", "< 5 nM"],
  ["CCC(CC(=O)O)c1ccc(N(CC)C2CCCOC2)c(Nc2ccc(Cl)cc2)c1 (single isomer, unassigned) [Example 60 E1]", "< 5 nM"],
  ["CCOc1ncc(Nc2cc(C(CC)CC(=O)O)cc(F)c2N(CC(C)C)CC(C)C)cn1 (single isomer, unassigned)", "< 5 nM"],
  ["CCN(c1ccc([C@H](COC)CC(=O)O)cc1Nc1cnc(C)nc1)C1CCOCC1 (single isomer, unassigned)", "> 50 nM"],
  ["COCC(CC(=O)O)c1cc(F)c(N(CC(C)C)CC(C)C)c(NC(=O)Nc2ccc(OC(F)(F)F)cc2)c1 (single isomer, unassigned)", "< 50 nM"]
]}
